molecular target: Sphingosine 1-phosphate receptor 1 (Homo sapiens) (UniProt P21453); assay: activates the human S1P1 receptor (AID 1044); details: S1P1 agonist cell-based reporter assay; at 4.5 µM; hits give high values
Sequence (P21453 whole entry, looked up): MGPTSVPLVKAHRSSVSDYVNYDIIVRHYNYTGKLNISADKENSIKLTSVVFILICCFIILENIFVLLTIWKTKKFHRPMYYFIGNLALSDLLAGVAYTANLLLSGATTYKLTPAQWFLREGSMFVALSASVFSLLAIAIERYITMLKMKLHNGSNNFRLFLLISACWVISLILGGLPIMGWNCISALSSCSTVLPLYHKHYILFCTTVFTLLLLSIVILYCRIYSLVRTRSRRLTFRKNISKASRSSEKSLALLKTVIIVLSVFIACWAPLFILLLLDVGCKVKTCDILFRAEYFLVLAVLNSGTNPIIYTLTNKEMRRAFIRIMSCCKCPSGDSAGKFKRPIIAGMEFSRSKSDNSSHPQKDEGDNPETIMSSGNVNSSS
Hit rate of the full screen: of about 16,000 compounds, about 240 (1.5%) were called active. This is one part of a sample in which actives are shown more often than they occur.
measurement.label: activation (%)

                                    compound                     target_or_test_system  measurement_label  quantitative_result
 0                     Cc1nc2cc3c(cc2s1)OCO3  Sphingosine 1-phosphate receptor 1 (Homo sapiens) (UniProt P21453)         activation                 2.86
 1  O=C(CCN1CCN(C(c2ccccc2)c2ccccc2)CC1)c1ccccc1  Sphingosine 1-phosphate receptor 1 (Homo sapiens) (UniProt P21453)         activation                 1.07
 2  CN(C)/C=N/NC(=O)c1nc(-c2cccc(-n3cccc3)c2)no1  Sphingosine 1-phosphate receptor 1 (Homo sapiens) (UniProt P21453)         activation                -6.62
 3                 N#CC(C#N)=CNc1c(F)cccc1Cl  Sphingosine 1-phosphate receptor 1 (Homo sapiens) (UniProt P21453)         activation                 48.9
 4               O=S(=O)(O)Oc1c[nH]c2ccccc12  Sphingosine 1-phosphate receptor 1 (Homo sapiens) (UniProt P21453)         activation                -5.88
 5  O=C(NNC(=S)Nc1ccccc1Cl)c1ccc(OC(F)(F)F)cc1  Sphingosine 1-phosphate receptor 1 (Homo sapiens) (UniProt P21453)         activation                 91.2
 6  O=C(Nc1cc2ccccc2s1)N1CCN(Cc2c(F)cccc2Cl)CC1  Sphingosine 1-phosphate receptor 1 (Homo sapiens) (UniProt P21453)         activation                 8.18
 7                        O=S(=O)(O)c1ncccn1  Sphingosine 1-phosphate receptor 1 (Homo sapiens) (UniProt P21453)         activation                 3.74
 8  CCOC(=O)c1c(NS(=O)(=O)c2cccc3nsnc23)sc(C)c1C  Sphingosine 1-phosphate receptor 1 (Homo sapiens) (UniProt P21453)         activation                  117
 9  COC(=O)c1ccccc1NC(=S)NNC(=O)c1ccc([N+](=O)[O-])cc1  Sphingosine 1-phosphate receptor 1 (Homo sapiens) (UniProt P21453)         activation                -4.53
10           Cn1c(=O)c(C#N)cn(-c2ccccc2)c1=O  Sphingosine 1-phosphate receptor 1 (Homo sapiens) (UniProt P21453)         activation                -15.9
11          Cc1[nH]ncc1S(=O)(=O)c1ccc(Cl)cc1  Sphingosine 1-phosphate receptor 1 (Homo sapiens) (UniProt P21453)         activation                 2.45
12     CCCCNC(=O)OCCSCCS(=O)(=O)c1ccc(Cl)cc1  Sphingosine 1-phosphate receptor 1 (Homo sapiens) (UniProt P21453)         activation                -12.4
13  CC(=O)Nc1ccc(S(=O)(=O)NNc2c(Cl)cncc2Cl)cc1Cl  Sphingosine 1-phosphate receptor 1 (Homo sapiens) (UniProt P21453)         activation                 80.4
14  OC(CNCCNc1nccc(C(F)(F)F)n1)COc1ccc(Cl)c(Cl)c1 (stereo not given)  Sphingosine 1-phosphate receptor 1 (Homo sapiens) (UniProt P21453)         activation                 15.7
15  c1ccc2c(c1)NC(C1Nc3ccccc3O1)O2 (stereo not given)  Sphingosine 1-phosphate receptor 1 (Homo sapiens) (UniProt P21453)         activation                -3.26
16  CCCS(=O)(=O)c1csc(C(=O)OC)c1N/N=C/c1cccs1  Sphingosine 1-phosphate receptor 1 (Homo sapiens) (UniProt P21453)         activation                -27.2
17                      Cn1nc(-c2ccccc2)cc1N  Sphingosine 1-phosphate receptor 1 (Homo sapiens) (UniProt P21453)         activation                -14.4
18                Cn1ncc(Br)c1NC(=O)C(C)(C)C  Sphingosine 1-phosphate receptor 1 (Homo sapiens) (UniProt P21453)         activation                  1.4
19  CC(C)c1ccc(NNS(=O)(=O)c2ccc(Cl)c(Cl)c2)cc1  Sphingosine 1-phosphate receptor 1 (Homo sapiens) (UniProt P21453)         activation                -3.29
20           CCCc1c(C(=O)O)cnn1-c1ccc(Cl)cc1  Sphingosine 1-phosphate receptor 1 (Homo sapiens) (UniProt P21453)         activation                -21.8
21  O=C(NCc1cccnc1)c1ccccc1NC(=O)c1c(F)cccc1F  Sphingosine 1-phosphate receptor 1 (Homo sapiens) (UniProt P21453)         activation                 10.3
22  COC(=O)c1cc(OC)c(OC)cc1NC(=O)c1ccccc1C(=O)O  Sphingosine 1-phosphate receptor 1 (Homo sapiens) (UniProt P21453)         activation                 14.4
23  NS(=O)(=O)c1ccc(Oc2c(Cl)cccc2[N+](=O)[O-])cc1  Sphingosine 1-phosphate receptor 1 (Homo sapiens) (UniProt P21453)         activation                -8.03
24               CC(C)NC(=O)NNc1c(Cl)cncc1Cl  Sphingosine 1-phosphate receptor 1 (Homo sapiens) (UniProt P21453)         activation                 8.17
